Assay: folding enthalpy; higher = less favourable; fluorescence melt of hairpins on a sequencing array, two-state fit
Conditions: sodium 0.088 M
Assay Readout: folding enthalpy (kcal/mol)
Note: unit kcal/mol is implicit; provide only the numeric part.

>>> observed("GATCCCCGAAAGGGCATC (((.(((....))).)))")
-14.3
>>> observed("GGCTAAGCGAAAGCTGCC (((..(((....))))))")
-23.7
>>> observed("GTAACGCGAAAGCGCTAC (((.(((....))).)))")
-19.6

INPUT: Give reported folding enthalpy value for GCAGGGCGAAAGCCCCGC ((.((((....)))).))
OUTPUT: -14.5

INPUT: Specify folding enthalpy for GAGTTAGGAAACTAACTC (((((((....))))))) and stop.
OUTPUT: -36.3

INPUT: Hello, please tell me recorded folding enthalpy for this one: GTTCACCGAAAGGTAAAC (((.(((....))).)))
OUTPUT: -20.4

INPUT: // Input: GTGCCAGCGAAAGCTCAC (((..(((....)))))) . Output its folding enthalpy only.
OUTPUT: -6.66

INPUT: Give folding enthalpy for GGGTGTGGAAACGTACCC ((((..(....)..))))
OUTPUT: -28.7

INPUT: State its folding enthalpy: GGATGAGGAAACTCACCC ((.((((....)))).))
OUTPUT: -22.3

INPUT: For GAAGCGGGAAACCGCTCC (.(((((....))))).) , write its folding enthalpy.
OUTPUT: -10.3

INPUT: Look up and state reported folding enthalpy for GCGATGCGAAAGCCCCGC (((..((....))..)))
OUTPUT: -20.5

----------
Test: folding enthalpy; higher = less favourable; fluorescence melt of hairpins on a sequencing array, two-state fit
Details: sodium 0.088 M
Assay Readout: folding enthalpy
Hey, just the number and the unit after it is fine.

Some entries whose results are on file:
>>> observed("GTCTCATCGAAAGATGAC (((..(((....))))))")
"-10.9 kcal/mol"
>>> observed("GGTTCCGAAAGGATACC ((((((....))).)))")
"-28.1 kcal/mol"
>>> observed("GCAACTGGAAACGGTTGC (((((.(....).)))))")
"-45.2 kcal/mol"
>>> observed("GATCTGATCGCAGATC ((((((....))))))")
"-11.2 kcal/mol"
>>> observed("GTAACGTCGAAAGACTAC (((..(((....))))))")
"-11.2 kcal/mol"

With those in mind, consider the next sequence.
INPUT: State its folding enthalpy for this sequence: GATTCACGAAAGTGATC (((.(((....))))))
OUTPUT: -13.4 kcal/mol

----------
Assay: melting temperature; fluorescence melt of hairpins on a sequencing array, two-state fit, raised by 9.35 °C to match UV melts
Settings: sodium 0.088 M
Decision: Tm compared against 50 °C; not below it gives rule met, below it gives rule not met.

>>> cat("GTGTTGCGAAAGCATCAC (((.(((....))).)))")
"rule met"

INPUT: Say whether GATCTCGATTGAGATC ((((((....)))))) shows Tm of 50 °C or more.
OUTPUT: rule met

INPUT: Decide: Tm of GTTCATCGAAAGATAAAC (((.(((....))).))) >= 50 °C?
OUTPUT: rule not met

INPUT: Evaluate GTCATGCCGAAAGGCGAC (((..(((....)))))) : Tm at minimum 50 °C?
OUTPUT: rule not met

INPUT: Quick check: does GATCCAAGTTTGGATC ((((((....)))))) have Tm greater than or equal to 50 °C?
OUTPUT: rule met
